Source: the nanobody polyreactivity screen of Harvey et al. (2022)

assay: yeast display, Sf9 membrane polyspecificity reagent, FACS + sequencing; frameworks hold sequencing errors

SEQUENCE_RECORD	polyreactivity (PSR sort gate)
QVQLVESCGGLVQAGGSLRLSCAASGITFGSYAMGWYRQAPGKERELVAAITTGTSTNYADSVKGRFTISRDNAKNTVYLQMNSLKPEDTAVYYCNAEKYNFIYAYEYWGQGTQVTVSS	low polyreactivity
QVQLVESGGGLVQEGGILRLSCAASGLTFYGYAMGWYRQAPGKERELVAAITSGDSTYYADSVKGRFTISRDNAKNTVYLQMNSLKPEDTAVYYCAAVGGYPRYGYWGQGTQVTVSS	high polyreactivity
QVKLVESAGGLVKAGGSLRLSSAASGITFNLYAMGCYSQSPGKERELVAAISWSGGSTYYADSVKGRFTISREHAKNTVYLQMNSLNQEDTAVYYCAAAWDYSAPYTYIYDYWGLGTQVTVSS	low polyreactivity
QVQLVESGGGLVQAGGSLRLSCAASGSIYVLYAMGWYRQAPGKERELVAAISRGVGGKNYADSVKGRFTISRDNAKNTVYLQMNSLIPEDTAVYYCAAQTLRWSHYYYWGQGTQVTVSS	high polyreactivity
QVQLVESGGGLVQAGGSLRLSCAASGFTFLYNTMGWYRQAPGKERELVAAISIRGGSTYYADSVKGRFTISRDNAKNTVYLQMNSLKPEETAVYYCAARTPPPSSRSRVYYWGLGTQVTVSS	high polyreactivity
QVQLVESGGGLVQAGGSLRLSCAASGRIYSYYARGWYRPAPGKERELVAAISRTGGTTYYADSVKGRFTISRDNAKNTVYLQMNSLKPEDTAVYYCAASGGYRPHRYQIGDYDYWGQGTQVTVSS	high polyreactivity
QVQLVESGGGLVQAGGSLRLSCAASGSIFLWNAMGWYRQAPGKEREFVASITSRGGSTYYADSVKGRFTISRDNAKNTVYLQMNSLKPEDTAVYYCAAVRSKYWYYQGGYSSYGYWGQGTQVTVSS	high polyreactivity
QVQLVESGGGLVQAGGSLRLSCAASGFIFGVNAMVWYRQAPGKERELVAAITRNGGSTYYADSVKGRFTISRDNAKNTVYLQMKSLKPEDTAVYYCAKYVRRAPSTFDVDYWGQGTQVTVSS	high polyreactivity
QVQLVESGGGLVQAGGSLRLSCAASGITFSGNAMGWYRQAPGKERELVAAISGRGGSTYYADSVKGRFTISRDNAKNTVYLQMNSLKPEDTAVYYCAARVPSPYVATYYYWGQGTQVTVSS	high polyreactivity
QVQLVESGGRLVEAGGSLSLSWAASGRIFPKYPMGWYRQAPGKERELVAAISRRGSSTYYADSVQGRFTISRDNAKNTVYLQMNSLTPEDTAVYYCATDARDGHDYWGQGSQVTVSS	high polyreactivity
QVQLVESGGGLVQAGGSLRLSCAASGSTFGFNAMGWYRQAPGKERELVAAITFSGGTTYYADSVKGRFTISRDNAKNTVYLQMNSLKPEDTAVYYCNADVKRDRVWGGDYWGQGTQVTVSS	low polyreactivity

* * *

assay: yeast display, Sf9 membrane polyspecificity reagent, FACS + sequencing; frameworks hold sequencing errors

SEQUENCE_RECORD	polyreactivity (PSR sort gate)
QVQLVESGGGLVQAGGSLRLSCAASGRIFVSYAMGWYRQAPGKERELVAGISSSGGSTYYADSVKGRFTISRDNAKNTVYLQMNSLKPEDTAVYYCNTDQRSRMDYWGQGTQVTVSS	low polyreactivity
QVQLVESGGGLVQAGGSLRLSCAASGSTFGENAMGWYRQAPGKERELVAAISDSGGDTYYADSVKGRFTISRDNAKNTVYLQMNSLKPEDTAVYYCAADRYGYWYAYYSWGQGTQVTVSS	low polyreactivity
QVQLVESGGGLVQAGGSLRLSCAASGFIFRYYAMGWYRQAPGKERELVATISYRGASTYYADSVKGRFTISRDNAKNTVYLQMNSLKPEDTAVYYCAADWGWYWYIYDYWGQGTQVTVSS	low polyreactivity
QVQLVDSGGGLVQAGGSLRLSCAASGSIFFIYAMGWYRQATGKERELVATITSGGSTYYADSVKGRFTISRDNAKNTVYLQMNSLKPEDTAVYYCAKYFVYVGYGRYDYWGQCTQVTVSS	low polyreactivity
QVQLVESGGGLVQAGGSLRLSCAASGFIFGYNGMGWYRQAPGKERELVAGITYSDGSTYYADSVKGRFTISRDNAKNTVYLQMNSLKPEDTAVYYCAVEVGYTDSPYSYDYWGQGTQVTVSS	low polyreactivity
QVQLVESGGGLVQAGGSLRLSCAASGRTFFFNAMGWYRQAPGKERELVARISSSGRTNYADSVKGRFTISRDNAKNTVYLQMNSLKPEDTAVYYCAAGRYGLYKSDRSPEYGYWGQGTQVTVSS	high polyreactivity
QVQLVESGGGLVQAGGSLRLSCAASGLIYPVYAMGWYRQAPGKEREFVAAITYDGGNTYYADSVKGRFTISRDNAKNTVYLQMNSLKPEDTAVYYCAAEGVELISTRDPHDDYWGQGTQVTVSS	low polyreactivity
QVQLVESGGGLVQAGGSLRLSCAASGITFNKYAMGWYRQAPGKERELVAAISSRGGSTYYADSVKGRFTISRDNAKNTVYLQMNSLKPEDTAVYYCNADFYRASSNFDYWGQGTQVSVSS	high polyreactivity
QVQLVESGGGLVQAGGSLRLSCAASGSTFYKNAMGWYRQAPGKERELVARISGRGGSTYYADSVKGRFTISRDNAKNTVYLQMNSLKPEDTAVYYCNALYRVFVGTYDYWGQGTQVTVSS	high polyreactivity
QVQLVESGGGLVQAGGSLRLSCAASGRTFYRYAMGWYRQAPGKERELVASITRDGRTNYADSVKGRFTISRDNAKNTVYLQMNSLKPEDTAVYYCNAKHKITHSSSDYWGQGTQVTVSS	high polyreactivity
QVQLVESGGGLVQAGGSLRLSCAASGSIFVYYALGWYRQAPGKERELVAAISSSGDTTYYADSVKGRFTISRDNAKNTVYLQMNSLKPEDTAVYYCNTRNDRASQRWVSREMDYWGQGTQVTVSS	high polyreactivity

* * *

assay: yeast display, Sf9 membrane polyspecificity reagent, FACS + sequencing; frameworks hold sequencing errors
MEASURED_ENDPOINT: polyreactivity (PSR sort gate)

SEQUENCE_RECORD	MEASURED_ENDPOINT	OBSERVED
QVQLVESVGGLVQAGGSLSISCAASGRIFPRNAMGWYRPAPGKERELVAAISSGGGGTYYADSVKGRFTISRDNAKNTVYLQMNSQKPEDTAVYYCAAYVVRWWCDGDYWGQGTQVTVSS	polyreactivity (PSR sort gate)	high polyreactivity
QVQLVESGGGLVQAGGSIRLSCAASGRTFGYYAMGWYRQAPGKERELVAAISWSGGRTYYADSVKGRFTISRDNAKNTVYLQMNSLKPEDTAVYYCAAQTAGFWYDYWGQGTQVTVSS	polyreactivity (PSR sort gate)	high polyreactivity

* * *

assay: yeast display, Sf9 membrane polyspecificity reagent, FACS + sequencing; frameworks hold sequencing errors
MEASURED_ENDPOINT: polyreactivity (PSR sort gate)

SEQUENCE_RECORD	MEASURED_ENDPOINT	OBSERVED
QGQLVESGGGLVQAGGSLRLTCAASGLTFRRYTMGSYRQAPGNERELVAPISGSGGSTYYADSVKGRFTISRDSAKNTVYFQMNSLKPEDTAVSYCNAPYLHYVIVFTDYSQRYDYWGQGTQVTVSS	polyreactivity (PSR sort gate)	high polyreactivity
QVQLVESGGGLDQAGGSLRLSCAASGFIYWYYAMGWYRQAPVKERELVAAITRGGSTNYADSVKGRFTISRDNAKNTVYFQKNRLKPEDTSVYYCNASWRLVSSGFDGGYWGEGTQVTVSS	polyreactivity (PSR sort gate)	high polyreactivity
QVQLVESGGGLVQAGGSLRLSCAASGLIFYAKAMGWYRQAPGKEREFVAAITYRGGSTYYADSVKGRFTISRDKAKNTVYLQMNCLKPEATAVYYCATVTDRYPYIRRYHFPYYYWGQGTQVTVSS	polyreactivity (PSR sort gate)	high polyreactivity

* * *

assay: yeast display, Sf9 membrane polyspecificity reagent, FACS + sequencing; frameworks hold sequencing errors
MEASURED_ENDPOINT: polyreactivity (PSR sort gate)

SEQUENCE_RECORD	OBSERVED
QVQLVYSGGGLVQAGGSLRLSCAASGSTFQAYDMGWYRQAPGKERELVAAITTGGSTNYADSVKGRFTISRDNAKNTVYLQLNSLKPEDTAVYYCNADFIYVLYYVVLYDYWGQGTQVTVSS	low polyreactivity
QVQLVESGGGLVQAGGSLRLSCAASGTIVGYAMGWYRQAPGKERELVASNSWRVGSTYYADSVKGRFTISRDNAKNTVYLQMISLKPEDTAVYYCNAASYVFLYYPGGIYRDDYWGQGTQVTVSS	low polyreactivity

* * *

assay: yeast display, Sf9 membrane polyspecificity reagent, FACS + sequencing; frameworks hold sequencing errors

SEQUENCE_RECORD	polyreactivity (PSR sort gate)
QVQLVESGGGLVQEGGSLRLSCAASRRTFRLYVMGWYSQAPGKERELVAAITWRGRTTYYAHSVKGRFTISRDNAKNTVYLQMNSLKPEDTAVYYCATTRYPRSYQEFGYWGQGTQGTVSS	high polyreactivity
QVQLVESGGGLVQAGGSLLLSCAASGTTSLVNAMGSYRQAPGKERELVAAISWSGGSTYYADSVKGRFTISRANAKNTVFLQRNSLKPEDTAVYYCAAESYGYWEYDYWGQGTQVTLSS	high polyreactivity
QVQLVESGGGLVQAGGSLRLSCAASGYIFNYAIGWYRQAPRKESELVAAITWDGSSTNYADSVKGRFTISRDNAKNTVYLQMKSLKPEDTAVYYCNARGRWTFNGFWFTYNYWGQGTQVTVSS	high polyreactivity
QVQLVESGGGLVQAGGSLRLSCAASGITFKWYAMGWYRQAPGKERELVAAISWSTGSTYYADSVKGRFTISRDNAKNTVYLQMNSLKPEDTSVYYCAARVKRPQTGYDRRYGYWGQGTQVTVSS	high polyreactivity
QVQLVESGGGLVQAGGSLRLSCAASGITFDVNAMGWYRQAPGKERELVAAITAGGNTYYADSVKGRFTISRDNAKNTVYLQMNSLKPEDTAVYYCAAVSTSLYWAGYDYWGQGTQVTVSS	low polyreactivity
QVQLVESGGGLVQAGGSLRLSCAASGSTFSIYAMGWSRQAPGKERELVAAITGTVGSTYYADSVKGRFTISRDNAKNTVYLQMNSLNPEDTAVYYCAARQVNYDYDYWGQGTQVTVSS	low polyreactivity
QVQLVESGGGLVQAGGSLRLSCAASGFIFYDNAMGWYRQAPGKERELVAAITSGGSTYYADSVKGRFTISRDNAKNTVYLQMNSLKPEDTAVYYCATRPWGSWYYYWGQGTQVTVSS	high polyreactivity
QVQLVESGGGLVQAGGSLRLSCAASGSIFPVYAMGWYRQAPGKERELVAAISSRGGRTYYADSVKGRFTISRDNAKNTVYLQMNSLKPEDTAVYYCAAVPYPSYYDTGYDYWGQGTQVTVSS	low polyreactivity
QVQLVESGGGLVQAGGSLRLSCAASGSTFGNNAMGWYRQAPGKERELVATIDDTTVSTNYADSVKGRFTISRDNAKNSVYLQMNSLKPEDTAVYYCAADDVDGSPYDYWGQGTQVTVSS	low polyreactivity
QVQLVESGGGLVQAGGSLRLSCAASGSIFAPYAMGWYRQAPGKERELVAAISSSGGSTYYADSVKGRFTISRDNAKNTLYLQMNSLKPEDTAVYYCAAETYHGLYDYWGQGTQVTVSS	low polyreactivity
QVQLVESGGGLVQAGGSLRLSCAASGFIFDYYAMGWYRQAPGKERELVAAITSRGGSTYYADSVKGRFTISRDNAKNTVYLQMNSLKPEDTAVYYCNKDPHYYATGRFYYWGQGTQVTVSS	high polyreactivity
